Source listed as PubChem BioAssay (NCI).

Each entry below lists one item and its recorded growth value.
Test system: BT-549 breast
PROTOCOL: NCI-60 one-dose screen, 48 h (100 = growth as untreated, 0 = no growth, -100 = all killed)
PROTOCOL CONDITIONS: 10 µM unless noted
This is part of a sample that, as a whole, favours compounds with a hit. Of some 83,000 tested, about 20% had one in any assay.

>  <MOLECULE>
Cc1nc(Nc2ccccn2)sc1C(=O)/C=C/c1ccc(Br)cc1

>  <growth, %>
83.3

$$$$
>  <MOLECULE>
OC(COc1cccc2ccccc12)CN1CCN(c2ccccc2)CC1 (stereo not given)

>  <growth, %>
95.3

$$$$
>  <MOLECULE>
Clc1ccc(-c2cn(-c3ccccc3)c(-c3ccccc3)n2)cc1

>  <growth, %>
62.9

$$$$
>  <MOLECULE>
CN(C)c1ccc(/C=N/NC(=O)COc2cc(=O)n(C)c3ccccc23)cc1

>  <growth, %>
108

$$$$
>  <MOLECULE>
CN(C)S(=O)(=O)n1cnc([C@@H]2[C@@H]3C(=O)OC[C@@H]3C[C@]23N=CN(Cc2ccccc2)C3=O)c1

>  <growth, %>
116

$$$$

---

System: UACC-257 melanoma
PROTOCOL: NCI-60 one-dose screen, 48 h (100 = growth as untreated, 0 = no growth, -100 = all killed)
PROTOCOL CONDITIONS: 10 µM unless noted
The panel holds about 83,000 compounds, 20% with a hit somewhere; the sample as a whole holds those more often.
Binary call on growth with cut-off 40%: strictly below means YES, and equality or higher means NO.

>  <COMPOUND>
O=C1C2=C(CCN(Cc3ccccc3)C2)N2CCN=C2N1Cc1ccc(C(F)(F)F)cc1

>  <TARGET OR TEST SYSTEM>
UACC-257 melanoma

>  <ANSWER LABEL>
YES

$$$$
>  <COMPOUND>
Cc1nc(Nc2ccc(NC(=S)Nc3ccccc3)cc2)nc2nc(Nc3cccc(Cl)c3)[nH]c(=O)c12

>  <TARGET OR TEST SYSTEM>
UACC-257 melanoma

>  <ANSWER LABEL>
NO

$$$$
>  <COMPOUND>
C=C1c2c(C)nn(-c3ccc(NC(C)=O)cc3)c2N(C)C23CC1C1(C)c4c(C)nn(-c5ccc(NC(C)=O)cc5)c4N(C)C(C)(CC12)C3 (centres undefined)

>  <TARGET OR TEST SYSTEM>
UACC-257 melanoma

>  <ANSWER LABEL>
YES

$$$$
>  <COMPOUND>
O=C(NCCOCCOCCNc1cccc2c1C(=O)N(C1CCCNC1=O)C2=O)c1cc2c(o1)C(=O)c1ccccc1C2=O (centres undefined)

>  <TARGET OR TEST SYSTEM>
UACC-257 melanoma

>  <ANSWER LABEL>
YES

$$$$
>  <COMPOUND>
CC(C)CCC[C@@H](C)[C@H]1CCC2C3=CCC4C(=O)C=CC(=O)C4C3CC[C@@]21C (some centres undefined)

>  <TARGET OR TEST SYSTEM>
UACC-257 melanoma

>  <ANSWER LABEL>
YES

$$$$
>  <COMPOUND>
CCN(CC)c1ccc(Nc2ccc(CC(=O)c3ccccc3)cc2)cc1

>  <TARGET OR TEST SYSTEM>
UACC-257 melanoma

>  <ANSWER LABEL>
NO

$$$$
>  <COMPOUND>
O=C(CC12CC3CC(CC(C3)C1)C2)NCCOCCOCCOCCNC(=O)c1cc2c(o1)C(=O)c1ccccc1C2=O

>  <TARGET OR TEST SYSTEM>
UACC-257 melanoma

>  <ANSWER LABEL>
YES

$$$$
>  <COMPOUND>
C=C1C(=O)O[C@H]2[C@H]1CC/C(COC(=O)/C=C\C(=O)NCc1ccc(Cn3c(=O)sn(-c4ccc(C#N)cc4)c3=O)cc1)=C\CC[C@@]1(C)O[C@@H]21

>  <TARGET OR TEST SYSTEM>
UACC-257 melanoma

>  <ANSWER LABEL>
YES

$$$$
>  <COMPOUND>
N[C@H]1CCC[C@@H]1NCCCCN1C(=O)c2cccc3cccc(c23)C1=O

>  <TARGET OR TEST SYSTEM>
UACC-257 melanoma

>  <ANSWER LABEL>
NO

$$$$
>  <COMPOUND>
C/C(=N\NC(N)=S)c1nc2ccc(Cl)cc2[nH]1

>  <TARGET OR TEST SYSTEM>
UACC-257 melanoma

>  <ANSWER LABEL>
NO

$$$$
>  <COMPOUND>
C/C(=N\NC(=O)Cn1c(-c2ccc(S(C)(=O)=O)cc2)nc2cc(Cl)ccc21)c1ccc(Cl)cc1

>  <TARGET OR TEST SYSTEM>
UACC-257 melanoma

>  <ANSWER LABEL>
NO

$$$$
>  <COMPOUND>
Cn1c(NCCc2ccc(O)c(O)c2)nc2c1c(=O)n(Cc1ccc(Cl)cc1)c(=O)n2C

>  <TARGET OR TEST SYSTEM>
UACC-257 melanoma

>  <ANSWER LABEL>
NO

$$$$
>  <COMPOUND>
Cc1c(Cl)cccc1NS(=O)(=O)c1ccccc1

>  <TARGET OR TEST SYSTEM>
UACC-257 melanoma

>  <ANSWER LABEL>
NO

$$$$
>  <COMPOUND>
COc1ccc(C2CC(c3cnccn3)=NN2)cc1OC (centres undefined)

>  <TARGET OR TEST SYSTEM>
UACC-257 melanoma

>  <ANSWER LABEL>
NO

$$$$
>  <COMPOUND>
CCN(CC)S(=O)(=O)c1ccc(O)c(NC(=O)c2[nH]c(C)c(C(C)=O)c2CCc2ccc(Cl)cc2)c1

>  <TARGET OR TEST SYSTEM>
UACC-257 melanoma

>  <ANSWER LABEL>
YES

$$$$
>  <COMPOUND>
CCOC(=O)c1ccc(-c2ccc3cc(OC)ccc3c2)nc1C

>  <TARGET OR TEST SYSTEM>
UACC-257 melanoma

>  <ANSWER LABEL>
NO

$$$$
>  <COMPOUND>
COc1ccc(-c2nnc(SCC(=O)NC3=NN=C(c4ccccc4)CS3)o2)cc1

>  <TARGET OR TEST SYSTEM>
UACC-257 melanoma

>  <ANSWER LABEL>
NO

$$$$
>  <COMPOUND>
CCN(CC)CC(O)CNc1c2ccc(Cl)cc2nc2ccc(OC)cc12 (centres undefined)

>  <TARGET OR TEST SYSTEM>
UACC-257 melanoma

>  <ANSWER LABEL>
YES

$$$$

---

Tested on: NCI-H23 lung
PROTOCOL: NCI-60 one-dose screen, 48 h (100 = growth as untreated, 0 = no growth, -100 = all killed)
PROTOCOL CONDITIONS: 10 µM unless noted
This is part of a sample that, as a whole, favours compounds with a hit. Of some 83,000 tested, about 20% had one in any assay.

>  <COMPOUND>
CCCCCCCSc1ccc(C(=O)O)cc1

>  <TARGET OR TEST SYSTEM>
NCI-H23 lung

>  <growth / %>
102

$$$$
>  <COMPOUND>
CCOC(=O)C(=CNc1ccccc1[N+](=O)[O-])C(=O)OCC

>  <TARGET OR TEST SYSTEM>
NCI-H23 lung

>  <growth / %>
99

$$$$
>  <COMPOUND>
COc1ccc(-c2nc3ccccn3c2/C=C/C(=O)c2cc(OC)c(OC)c(OC)c2)cc1

>  <TARGET OR TEST SYSTEM>
NCI-H23 lung

>  <growth / %>
45.1

$$$$
>  <COMPOUND>
CCOC(=O)N1CCc2c(sc3c2C(=O)N[C@H](c2ccc(OC)cc2)N3)C1

>  <TARGET OR TEST SYSTEM>
NCI-H23 lung

>  <growth / %>
103

$$$$
>  <COMPOUND>
COc1ccc(C2CC(c3ccccc3)=NN2c2nc(C)c(C(C)=O)s2)cc1 (stereo unspecified)

>  <TARGET OR TEST SYSTEM>
NCI-H23 lung

>  <growth / %>
99.3

$$$$
>  <COMPOUND>
COc1ccc(Oc2nc(Nc3ccc(N4CCOCC4)nc3)ncc2NC(=O)c2cc(OC)cc(OC)c2)cc1

>  <TARGET OR TEST SYSTEM>
NCI-H23 lung

>  <growth / %>
97.9

$$$$
